Target: serotonin 5-HT1A receptors (Rattus norvegicus, UniProt P19327)
Construct: The hippocampi were immediately collected from the brains; from tissue; host or cells: rat hippocampus membranes
Sequence (P19327 1-422): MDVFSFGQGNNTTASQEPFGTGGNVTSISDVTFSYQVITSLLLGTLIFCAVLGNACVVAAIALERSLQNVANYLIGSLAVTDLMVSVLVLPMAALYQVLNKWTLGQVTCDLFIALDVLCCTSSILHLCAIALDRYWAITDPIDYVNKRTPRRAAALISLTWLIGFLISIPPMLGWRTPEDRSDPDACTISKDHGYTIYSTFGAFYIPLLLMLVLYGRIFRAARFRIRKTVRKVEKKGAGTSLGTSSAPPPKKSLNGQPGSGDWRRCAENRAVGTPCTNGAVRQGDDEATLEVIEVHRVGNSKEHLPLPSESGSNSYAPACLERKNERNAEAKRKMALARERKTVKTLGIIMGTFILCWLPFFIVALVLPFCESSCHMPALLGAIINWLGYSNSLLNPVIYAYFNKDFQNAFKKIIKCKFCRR
Assay: Receptor binding test: inhibition of tritium-labeled 8-hydroxy-DPAT binding to brain (hippocampus) homogenate
Design: species or system Male Wistar rats
Settings: read-out: Inhibitive concentration at 50% (IC50), Serotonin receptor 5-HT1A
Description: Properties relating to binding of the vesamicol piperazine derivatives of the present invention to various receptors were examined as follows. Specifically, ligands which combine with each receptor were incubated together with homogenates prepared as follows. To measure affinity to serotonin 5-HT1A receptors, tritium-labeled 8-hydroxy-DPAT was added to a brain homogenate prepared as follows. […]
pIC50: −log10 of the molar value.
observationType: pIC50

molecule: Cc1ccc(C)c(N2CCN([C@@H]3Cc4c(I)cccc4C[C@H]3O)CC2)c1 (single isomer, unassigned)
observationType: pIC50
measurement: 6.62

====

Molecular target: sigma receptors (Cavia porcellus)
Construct: The brain was immediately extracted; The cerebellum was removed from the brain; from tissue; host or cells: guinea pig brain without cerebellum, membrane pellet
Sequence (Q60492 whole entry): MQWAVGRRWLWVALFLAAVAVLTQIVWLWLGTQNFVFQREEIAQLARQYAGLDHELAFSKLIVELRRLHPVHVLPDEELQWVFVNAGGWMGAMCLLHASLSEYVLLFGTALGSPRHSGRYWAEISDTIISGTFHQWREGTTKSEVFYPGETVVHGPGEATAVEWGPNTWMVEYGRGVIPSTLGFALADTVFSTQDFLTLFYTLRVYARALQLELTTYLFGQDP
Experiment: Receptor binding test: inhibition of tritium-labeled (+) pentazocine binding to brain homogenate
Design: species or system male guinea pig
Settings: inhibitive concentration at 50% (IC50), Receptor Sigma-1
So basically, if IC50 comes in under 4 µM it's Yes, and if it's 4 µM or more it's No.

molecule: Cc1cccc(N2CCN([C@@H]3Cc4c(I)cccc4C[C@H]3O)CC2)c1 (racemic)
discreteLabel: No

molecule: COc1ccccc1N1CCN([C@@H]2Cc3c(I)cccc3C[C@H]2O)CC1 (racemic)
discreteLabel: No

molecule: CCc1ccccc1N1CCN([C@@H]2Cc3c(I)cccc3C[C@H]2O)CC1 (racemic)
discreteLabel: No

molecule: O[C@@H]1Cc2cc(I)ccc2C[C@H]1N1CCN(c2ccccc2)CC1 (racemic)
discreteLabel: Yes

molecule: Nc1ccccc1N1CCN([C@@H]2Cc3c(I)cccc3C[C@H]2O)CC1 (single isomer, unassigned)
discreteLabel: No

molecule: Cc1ccccc1N1CCN([C@@H]2Cc3c(I)cccc3C[C@H]2O)CC1 (racemic)
discreteLabel: No

molecule: Nc1ccccc1N1CCN([C@@H]2Cc3cc(I)ccc3C[C@H]2O)CC1 (racemic)
discreteLabel: Yes

molecule: Oc1ccccc1N1CCN([C@@H]2Cc3c(I)cccc3C[C@H]2O)CC1 (racemic)
discreteLabel: Yes

====

Target: vesamicol receptors (Rattus norvegicus, UniProt Q62666)
Sequence (Q62666 1-530): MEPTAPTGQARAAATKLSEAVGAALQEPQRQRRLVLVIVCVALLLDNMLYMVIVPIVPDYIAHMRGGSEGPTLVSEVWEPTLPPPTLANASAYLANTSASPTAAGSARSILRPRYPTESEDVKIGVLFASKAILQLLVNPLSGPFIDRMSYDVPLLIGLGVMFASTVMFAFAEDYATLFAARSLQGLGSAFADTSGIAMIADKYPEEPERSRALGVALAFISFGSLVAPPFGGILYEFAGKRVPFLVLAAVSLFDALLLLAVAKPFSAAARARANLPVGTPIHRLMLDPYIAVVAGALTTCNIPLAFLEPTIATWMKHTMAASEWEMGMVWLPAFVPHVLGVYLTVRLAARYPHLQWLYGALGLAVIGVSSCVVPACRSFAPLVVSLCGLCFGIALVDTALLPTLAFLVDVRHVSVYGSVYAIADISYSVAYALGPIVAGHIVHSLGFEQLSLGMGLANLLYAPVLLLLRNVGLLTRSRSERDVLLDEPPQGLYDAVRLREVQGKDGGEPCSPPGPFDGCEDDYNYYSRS
Test: Saturation experiment of I-125 labeled DRC140 on brain cell fractions (Scatchard plots)
Format: binding
Parameters: Synaptic vesicles were extracted and separated from the brain of a rat; from tissue; host or cells: rat brain without cerebellum: P2, crude synaptic vesicles, purified synaptic vesicles
Details: Kd, Purified synaptic vesicles; average value ± standard deviation
observationType: Kd (nM)

molecule: OC1Cc2cccc([125I])c2CC1N1CCN(c2ccccc2)CC1 (stereo not shown) [I-125 labeled DRC140]
experimentalSystem: vesamicol receptors (Rattus norvegicus, UniProt Q62666)
observationType: Kd
unitName: nM
measurement: 0.31
